test system: HeLa; assay: Antiproliferative activity against human HeLa cells after 24 to 48 hrs by CKK8 assay; type: functional, cell-based
Parameter measured: IC50 (µM)
Field: numeric (µM). Do not append units.

Determine from records and report IC50 for `O=C(OCCn1c([N+](=O)[O-])cnc1/C=C/c1cccc(Cl)c1)c1c[nH]c2ccccc12`
4.21

Determine from records and report IC50 for `O=C(OCCn1c([N+](=O)[O-])cnc1/C=C\c1ccc(Br)cc1)c1c[nH]c2ccccc12`
4.8

Determine from records and report IC50 for `O=C(OCCn1c([N+](=O)[O-])cnc1/C=C\c1cccc(Br)c1)c1c[nH]c2ccccc12`
4.81

Determine from records and report IC50 for `O=C(OCCn1c([N+](=O)[O-])cnc1/C=C\c1ccccc1[N+](=O)[O-])c1c[nH]c2ccccc12`
1.24

Determine from records and report IC50 for `O=C(OCCn1c([N+](=O)[O-])cnc1/C=C\c1cccc2ccccc12)c1c[nH]c2ccccc12`
10.1

Determine from records and report IC50 for `O=C(OCCn1c([N+](=O)[O-])cnc1/C=C/c1ccccc1Cl)c1c[nH]c2ccccc12`
3.1

Determine from records and report IC50 for COc1ccc(/C=C\c2cc(OC)c(OC)c(OC)c2)cc1O [COMBRETASTATIN A4]
1.44

Determine from records and report IC50 for `O=C(OCCn1c([N+](=O)[O-])cnc1/C=C/c1ccc(Cl)cc1)c1c[nH]c2ccccc12`
3.77

---

assay: Cytotoxicity against human macrophages assessed as reduction in cell viability after 24 hrs by MTT assay; type: cell-based, Macrophage
Record form. Attribute: CC50 at 24 h. Fill in for each entry.
Field: numeric (µM). Do not append units.

Determine from records and report CC50 at 24 h for `O=C(OCCn1c([N+](=O)[O-])cnc1/C=C\c1cccc2ccccc12)c1c[nH]c2ccccc12`
158

Determine from records and report CC50 at 24 h for `COc1ccccc1/C=C\c1ncc([N+](=O)[O-])n1CCOC(=O)c1c[nH]c2ccccc12`
77

Determine from records and report CC50 at 24 h for `O=C(OCCn1c([N+](=O)[O-])cnc1/C=C/c1cccc(Cl)c1)c1c[nH]c2ccccc12`
156

Determine from records and report CC50 at 24 h for `O=C(OCCn1c([N+](=O)[O-])cnc1/C=C/c1ccc(Cl)cc1)c1c[nH]c2ccccc12`
104

Determine from records and report CC50 at 24 h for `O=C(OCCn1c([N+](=O)[O-])cnc1/C=C\c1ccccc1[N+](=O)[O-])c1c[nH]c2ccccc12`
109

Determine from records and report CC50 at 24 h for `Cc1ccc(/C=C\c2ncc([N+](=O)[O-])n2CCOC(=O)c2c[nH]c3ccccc23)cc1`
123

Determine from records and report CC50 at 24 h for `O=C(OCCn1c([N+](=O)[O-])cnc1/C=C\c1ccccc1Br)c1c[nH]c2ccccc12`
145

Determine from records and report CC50 at 24 h for `O=C(OCCn1c([N+](=O)[O-])cnc1/C=C\c1ccc(Cl)cc1Cl)c1c[nH]c2ccccc12`
287

Determine from records and report CC50 at 24 h for `O=C(OCCn1c([N+](=O)[O-])cnc1/C=C\c1ccc(Br)cc1)c1c[nH]c2ccccc12`
98

Determine from records and report CC50 at 24 h for `COc1ccc(/C=C\c2ncc([N+](=O)[O-])n2CCOC(=O)c2c[nH]c3ccccc23)cc1`
106

Determine from records and report CC50 at 24 h for `O=C(OCCn1c([N+](=O)[O-])cnc1/C=C\c1cccc(Br)c1)c1c[nH]c2ccccc12`
164

Determine from records and report CC50 at 24 h for `Cc1cccc(/C=C\c2ncc([N+](=O)[O-])n2CCOC(=O)c2c[nH]c3ccccc23)c1`
154

Determine from records and report CC50 at 24 h for `O=C(OCCn1c([N+](=O)[O-])cnc1/C=C\c1cccc([N+](=O)[O-])c1)c1c[nH]c2ccccc12`
123

Determine from records and report CC50 at 24 h for `Cc1ccccc1/C=C\c1ncc([N+](=O)[O-])n1CCOC(=O)c1c[nH]c2ccccc12`
202

Determine from records and report CC50 at 24 h for `COc1cccc(/C=C\c2ncc([N+](=O)[O-])n2CCOC(=O)c2c[nH]c3ccccc23)c1`
89

Determine from records and report CC50 at 24 h for `O=C(OCCn1c([N+](=O)[O-])cnc1/C=C\c1ccccc1)c1c[nH]c2ccccc12`
105

Determine from records and report CC50 at 24 h for `O=C(OCCn1c([N+](=O)[O-])cnc1/C=C/c1ccccc1Cl)c1c[nH]c2ccccc12`
132

Determine from records and report CC50 at 24 h for `O=C(OCCn1c([N+](=O)[O-])cnc1/C=C\c1ccc([N+](=O)[O-])cc1)c1c[nH]c2ccccc12`
200

---

system: U-251; test: Antiproliferative activity against human U251 cells after 24 to 48 hrs by CKK8 assay; assay type: functional, cell-based
Record form. Attribute: pIC50. Fill in for each entry.
Please note pIC50 is a logarithmic value: minus log10 of concentration in mol/L. Answer with that number alone.

Determine from records and report pIC50 for `Cc1cccc(/C=C\c2ncc([N+](=O)[O-])n2CCOC(=O)c2c[nH]c3ccccc23)c1`
5.52

Determine from records and report pIC50 for `O=C(OCCn1c([N+](=O)[O-])cnc1/C=C/c1ccc(Cl)cc1)c1c[nH]c2ccccc12`
5.49

Determine from records and report pIC50 for `Cc1ccc(/C=C\c2ncc([N+](=O)[O-])n2CCOC(=O)c2c[nH]c3ccccc23)cc1`
5.51

Determine from records and report pIC50 for `O=C(OCCn1c([N+](=O)[O-])cnc1/C=C\c1ccc(Cl)cc1Cl)c1c[nH]c2ccccc12`
6.06

Determine from records and report pIC50 for `O=C(OCCn1c([N+](=O)[O-])cnc1/C=C\c1ccccc1Br)c1c[nH]c2ccccc12`
5.51

---

tested on: U-251; assay: Antiproliferative activity against human U251 cells after 24 to 48 hrs by CKK8 assay; type: functional, cell-based
Record form. Attribute: IC50. Fill in for each entry.
Field: numeric (µM). Do not append units.

Determine from records and report IC50 for `COc1ccccc1/C=C\c1ncc([N+](=O)[O-])n1CCOC(=O)c1c[nH]c2ccccc12`
4.09

Determine from records and report IC50 for `O=C(OCCn1c([N+](=O)[O-])cnc1/C=C\c1ccc([N+](=O)[O-])cc1)c1c[nH]c2ccccc12`
2.03

Determine from records and report IC50 for `O=C(OCCn1c([N+](=O)[O-])cnc1/C=C/c1cccc(Cl)c1)c1c[nH]c2ccccc12`
4.08

Determine from records and report IC50 for `O=C(OCCn1c([N+](=O)[O-])cnc1/C=C\c1cccc([N+](=O)[O-])c1)c1c[nH]c2ccccc12`
2.81

Determine from records and report IC50 for `Cc1ccccc1/C=C\c1ncc([N+](=O)[O-])n1CCOC(=O)c1c[nH]c2ccccc12`
2.79

Determine from records and report IC50 for `O=C(OCCn1c([N+](=O)[O-])cnc1/C=C\c1cccc(Br)c1)c1c[nH]c2ccccc12`
3.87

Determine from records and report IC50 for `COc1ccc(/C=C\c2ncc([N+](=O)[O-])n2CCOC(=O)c2c[nH]c3ccccc23)cc1`
3.07

Determine from records and report IC50 for `O=C(OCCn1c([N+](=O)[O-])cnc1/C=C\c1ccccc1)c1c[nH]c2ccccc12`
16.9

Determine from records and report IC50 for `O=C(OCCn1c([N+](=O)[O-])cnc1/C=C/c1ccccc1Cl)c1c[nH]c2ccccc12`
2.98

Determine from records and report IC50 for COc1ccc(/C=C\c2cc(OC)c(OC)c(OC)c2)cc1O [COMBRETASTATIN A4]
0.54

Determine from records and report IC50 for `O=C(OCCn1c([N+](=O)[O-])cnc1/C=C\c1ccc(Br)cc1)c1c[nH]c2ccccc12`
3.89

Determine from records and report IC50 for `COc1cccc(/C=C\c2ncc([N+](=O)[O-])n2CCOC(=O)c2c[nH]c3ccccc23)c1`
2.76

Determine from records and report IC50 for `O=C(OCCn1c([N+](=O)[O-])cnc1/C=C\c1ccccc1[N+](=O)[O-])c1c[nH]c2ccccc12`
1.11

Determine from records and report IC50 for `O=C(OCCn1c([N+](=O)[O-])cnc1/C=C\c1cccc2ccccc12)c1c[nH]c2ccccc12`
12.8

---

Record form. Attribute: pIC50. Fill in for each entry.
tested on: HeLa; assay: Antiproliferative activity against human HeLa cells after 24 to 48 hrs by CKK8 assay; assay type: functional, cell-based
Please note pIC50 is a logarithmic value: minus log10 of concentration in mol/L. Answer with that number alone.

Determine from records and report pIC50 for `COc1ccccc1/C=C\c1ncc([N+](=O)[O-])n1CCOC(=O)c1c[nH]c2ccccc12`
5.49

Determine from records and report pIC50 for `O=C(OCCn1c([N+](=O)[O-])cnc1/C=C\c1ccc(Cl)cc1Cl)c1c[nH]c2ccccc12`
5.98

Determine from records and report pIC50 for `O=C(OCCn1c([N+](=O)[O-])cnc1/C=C\c1ccc([N+](=O)[O-])cc1)c1c[nH]c2ccccc12`
5.75

Determine from records and report pIC50 for `COc1cccc(/C=C\c2ncc([N+](=O)[O-])n2CCOC(=O)c2c[nH]c3ccccc23)c1`
5.40

Determine from records and report pIC50 for `Cc1ccc(/C=C\c2ncc([N+](=O)[O-])n2CCOC(=O)c2c[nH]c3ccccc23)cc1`
5.64

Determine from records and report pIC50 for `O=C(OCCn1c([N+](=O)[O-])cnc1/C=C\c1ccccc1)c1c[nH]c2ccccc12`
4.87

Determine from records and report pIC50 for `Cc1cccc(/C=C\c2ncc([N+](=O)[O-])n2CCOC(=O)c2c[nH]c3ccccc23)c1`
5.42

Determine from records and report pIC50 for `Cc1ccccc1/C=C\c1ncc([N+](=O)[O-])n1CCOC(=O)c1c[nH]c2ccccc12`
5.35

Determine from records and report pIC50 for `O=C(OCCn1c([N+](=O)[O-])cnc1/C=C\c1ccccc1Br)c1c[nH]c2ccccc12`
5.39

Determine from records and report pIC50 for `O=C(OCCn1c([N+](=O)[O-])cnc1/C=C\c1cccc([N+](=O)[O-])c1)c1c[nH]c2ccccc12`
5.70

Determine from records and report pIC50 for `COc1ccc(/C=C\c2ncc([N+](=O)[O-])n2CCOC(=O)c2c[nH]c3ccccc23)cc1`
5.41
